Please go through the items and note down their IC50.
target: AKT2 (Homo sapiens, UniProt P31751)
Sequence (P31751 whole entry): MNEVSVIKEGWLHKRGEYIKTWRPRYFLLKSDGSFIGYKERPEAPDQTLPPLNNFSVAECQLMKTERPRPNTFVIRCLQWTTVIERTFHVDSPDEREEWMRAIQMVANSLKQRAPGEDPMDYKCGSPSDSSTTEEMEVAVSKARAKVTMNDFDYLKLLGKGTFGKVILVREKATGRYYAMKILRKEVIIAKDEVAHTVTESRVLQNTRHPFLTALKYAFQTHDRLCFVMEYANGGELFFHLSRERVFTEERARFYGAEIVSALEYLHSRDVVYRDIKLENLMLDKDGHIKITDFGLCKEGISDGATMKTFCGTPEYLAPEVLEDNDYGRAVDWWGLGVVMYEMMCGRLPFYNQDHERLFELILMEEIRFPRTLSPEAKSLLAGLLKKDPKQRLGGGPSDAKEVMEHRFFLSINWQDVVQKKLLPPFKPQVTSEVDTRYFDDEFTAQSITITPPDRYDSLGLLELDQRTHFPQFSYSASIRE
measurement description: Live cell target engagement by NanoBRET competitive probe displacement, AKT2
experimental conditions: transfected HEK293 cells, 2 h at 37° C., read-out: AKT2 IC50: GeoMean IC50

Prompt line: Item under review: Nc1ncccc1-c1nc2ccc(-n3cccn3)nc2n1-c1ccc2c(c1)CC[C@@H]2NC(=O)c1cc(C=O)c(O)c(Cl)c1F [Example 123] . Reported IC50?
Response line: 0.01 to 0.1 µM

Prompt line: Item under review: Cc1cc(-n2cccn2)nc2c1nc(-c1cccnc1N)n2-c1ccc2c(c1)CC[C@@H]2n1cnc2cc(O)c(C=O)cc2c1=O [Example 220] . Reported IC50?
Response line: 0.1 to 2 µM

Prompt line: Item under review: Nc1ncccc1-c1nc2ccc(-c3ccccc3)nc2n1-c1ccc2c(c1)CC[C@@H]2NC(=O)c1ccc(C=O)c(O)c1 [Example 30] . Reported IC50?
Response line: 0.1 to 2 µM

Prompt line: Item under review: Nc1ncccc1-c1nc2ccc(-n3cccn3)nc2n1-c1ccc2c(c1)CC[C@@H]2NC(=O)c1ccc(O)c(C=O)c1F [Example 255] . Reported IC50?
Response line: 0.1 to 2 µM

Prompt line: Item under review: Nc1ncccc1-c1nc2ccc(-c3ncc[nH]3)nc2n1-c1ccc2c(c1)CC[C@@H]2NC(=O)c1ccc(O)c(C=O)c1 [Example 194] . Reported IC50?
Response line: 0.1 to 2 µM

Prompt line: Item under review: Nc1ncccc1-c1nc2ccc(-c3cnccn3)nc2n1-c1ccc2c(c1)CC[C@@H]2NC(=O)c1ccc(O)c(C=O)c1 [Example 29] . Reported IC50?
Response line: 0.1 to 2 µM

Prompt line: Item under review: Nc1ncccc1-c1nc2ccc(-n3cccn3)nc2n1-c1ccc2c(c1)CC(F)[C@@H]2NC(=O)c1ccc(O)c(C=O)c1 (single isomer, unassigned) [Example 257] . Reported IC50?
Response line: 0.1 to 2 µM

Prompt line: Item under review: Nc1ncccc1-c1nc2ccc(-c3cccc(F)c3)nc2n1-c1ccc2c(c1)CC[C@@H]2NC(=O)c1ccc(O)c(C=O)c1 [Example 26] . Reported IC50?
Response line: 0.1 to 2 µM

Prompt line: Item under review: CCc1ccc2nc(-c3cccnc3N)n(-c3ccc4c(c3)CC[C@@H]4NC(=O)c3ccc(O)c(C=O)c3)c2n1 [Example 43] . Reported IC50?
Response line: ≥ 2 µM

Prompt line: Item under review: Nc1ncccc1-c1nc2ccc(F)nc2n1-c1ccc2c(c1)CC[C@@H]2NC(=O)c1ccc(O)c(C=O)c1 [Example 48] . Reported IC50?
Response line: ≥ 2 µM

Prompt line: Item under review: Nc1ncccc1-c1nc2ccc(-n3cccn3)nc2n1-c1ccc2c(c1)CC(F)[C@@H]2NC(=O)c1ccc(O)c(C=O)c1 (single isomer, unassigned) [Example 256] . Reported IC50?
Response line: 0.1 to 2 µM

Prompt line: Item under review: Nc1ncccc1-c1nc2ccc(-c3nccs3)nc2n1-c1ccc2c(c1)CC[C@@H]2NC(=O)c1cc(C=O)c(O)c(F)c1F [Example 140] . Reported IC50?
Response line: 0.01 to 0.1 µM

Prompt line: Item under review: Nc1ncccc1-c1nc2ccc(-c3ccccc3)nc2n1-c1ccc2c(c1)CC[C@@H]2NC(=O)c1cc(C=O)c2[nH]cnc2c1 [Example 162] . Reported IC50?
Response line: < 0.01 µM

Prompt line: Item under review: Cc1nc(-c2ccc3nc(-c4cccnc4N)n(-c4ccc5c(c4)CC[C@@H]5NC(=O)c4ccc(O)c(C=O)c4)c3n2)no1 [Example 173] . Reported IC50?
Response line: 0.1 to 2 µM

Prompt line: Item under review: Nc1ncccc1-c1nc2ccc(-n3cc4c(n3)CNC4)nc2n1-c1ccc2c(c1)CC[C@@H]2NC(=O)c1ccc(O)c(C=O)c1 [Example 160] . Reported IC50?
Response line: 0.1 to 2 µM

Prompt line: Item under review: Cn1cc(-c2ccc3nc(-c4cccnc4N)n(-c4ccc5c(c4)CC[C@@H]5NC(=O)c4ccc(O)c(C=O)c4)c3n2)cn1 [Example 28] . Reported IC50?
Response line: 0.1 to 2 µM

Prompt line: Item under review: Nc1ncccc1-c1nc2ccc(-c3ncc(F)s3)nc2n1-c1ccc2c(c1)CC[C@@H]2NC(=O)c1cc(C=O)c(O)c(F)c1F [Example 193] . Reported IC50?
Response line: 0.01 to 0.1 µM

Prompt line: Item under review: Nc1ncccc1-c1nc2ccc(-c3ccccc3)nc2n1-c1ccc2c(c1)CC[C@H]2NC(=O)c1ccc(O)c(C=O)c1 [Example 7] . Reported IC50?
Response line: ≥ 2 µM

Prompt line: Item under review: Nc1ncccc1-c1nc2ccc(-c3cc4n(n3)CCOC4)nc2n1-c1ccc2c(c1)CC[C@@H]2NC(=O)c1cc(C=O)c(O)cc1F [Example 246] . Reported IC50?
Response line: 0.1 to 2 µM

Prompt line: Item under review: N#Cc1cnn(-c2ccc3nc(-c4cccnc4N)n(-c4ccc5c(c4)CC[C@@H]5NC(=O)c4ccc(O)c(C=O)c4)c3n2)c1 [Example 90] . Reported IC50?
Response line: 0.1 to 2 µM

Prompt line: Item under review: Cc1cnc(-c2ccc3nc(-c4cccnc4N)n(-c4ccc5c(c4)CC[C@@H]5NC(=O)c4ccc(O)c(C=O)c4)c3n2)s1 [Example 132] . Reported IC50?
Response line: 0.1 to 2 µM

Prompt line: Item under review: Cc1cc(-n2nccn2)nc2c1nc(-c1cccnc1N)n2-c1ccc2c(c1)CC[C@@H]2NC(=O)c1ccc(O)c(C=O)c1 [Example 234] . Reported IC50?
Response line: 0.1 to 2 µM

Prompt line: Item under review: Nc1ncccc1-c1nc2ccc(-c3ccccc3)nc2n1-c1ccc2c(c1)CC[C@@H]2Nc1nccc2c(C=O)c(O)ccc12 [Example 39] . Reported IC50?
Response line: 0.1 to 2 µM

Prompt line: Item under review: CN(C)C(=O)Nc1ccc(C(=O)N[C@H]2CCc3cc(-n4c(-c5cccnc5N)nc5ccc(-n6ccc(F)n6)nc54)ccc32)cc1C=O [Example 122] . Reported IC50?
Response line: 0.1 to 2 µM

Prompt line: Item under review: Nc1ncccc1-c1nc2ccc(-n3ccc(-n4cccn4)n3)nc2n1-c1ccc2c(c1)CC[C@@H]2NC(=O)c1ccc(O)c(C=O)c1 [Example 117] . Reported IC50?
Response line: 0.1 to 2 µM
